# MEASURED TARGET: human MAO-B (Homo sapiens, UniProt P27338)
# Construct: purchased BD Biosciences (MA, USA)
# ASSAY TEXT: MAO-B activity, colorimetric method, benzylamine substrate
# Assay type: biochemical
# MEASUREMENT CONTEXT: ratio of IC50 for MAO-B to IC50 for SSAO
QUANTITY MEASURED: Specificity of SSAO on MAO-B

1. CSc1ccc(C/C(=C/F)CN)cc1.Cl | 200
2. NC/C(=C\F)CCc1ccc(F)cc1 | 2.1
3. CSc1cccc(C/C=C(/F)CN)c1.Cl | 100000
4. COc1cccc(C/C(=C/F)CN)c1.Cl | 64.3
5. Cc1cccc(C/C=C(/F)CN)c1.Cl | 7692
6. CCCCOc1ccc(CC/C(=C\Cl)CN)cc1.Cl | 2.5

----------
# MEASURED TARGET: human MAO-B (Homo sapiens)
# Construct: purchased BD Biosciences (MA, USA)
# Sequence (P27338 1-520): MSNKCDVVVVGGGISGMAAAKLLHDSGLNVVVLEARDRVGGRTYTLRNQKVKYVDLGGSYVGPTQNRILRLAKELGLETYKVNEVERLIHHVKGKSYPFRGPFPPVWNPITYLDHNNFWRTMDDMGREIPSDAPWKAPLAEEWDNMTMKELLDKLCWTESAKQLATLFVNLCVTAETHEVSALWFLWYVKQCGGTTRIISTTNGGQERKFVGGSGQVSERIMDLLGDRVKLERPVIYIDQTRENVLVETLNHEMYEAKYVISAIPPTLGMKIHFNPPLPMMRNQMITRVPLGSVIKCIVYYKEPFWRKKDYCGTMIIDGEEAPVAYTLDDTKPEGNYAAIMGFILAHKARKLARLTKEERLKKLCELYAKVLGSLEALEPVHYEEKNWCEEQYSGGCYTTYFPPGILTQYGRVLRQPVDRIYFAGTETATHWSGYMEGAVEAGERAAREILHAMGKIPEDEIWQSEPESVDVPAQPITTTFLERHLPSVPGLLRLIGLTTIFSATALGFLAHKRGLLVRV
# ASSAY TEXT: MAO-B activity, colorimetric method, benzylamine substrate
# Type: biochemical
# MEASUREMENT CONTEXT: ratio of IC50 for MAO-B to IC50 for SSAO
Counter-ions that a name gives are not always drawn.
QUANTITY MEASURED: Specificity of SSAO on MAO-B

1. Cl.NC/C(F)=C\Cc1cccc(OC(F)(F)F)c1 | 53670
2. COc1cccc(OC/C=C(/F)CN)c1 | 5312
3. NC/C(=C\F)CCc1cc(F)cc(C(F)(F)F)c1.O=C(O)C(F)(F)F | 5.9
4. CC(C)Oc1ccc(C/C(=C/F)CN)cc1.Cl | 5400
5. NC/C(=C\Cl)CCc1cc(F)cc(C(F)(F)F)c1.O=C(O)C(F)(F)F | 185
6. CC(C)(C)c1ccc(C/C(=C/F)CN)cc1.Cl | 5429
7. COc1cccc(C/C=C(/F)CN)c1.Cl | 50000
8. CCOc1ccc(CC/C(=C\Cl)CN)cc1.Cl | 8.6
9. CN(C)c1cccc(C/C=C(/F)CN)c1.Cl | 7272
10. Cl.NC/C(F)=C\Cc1ccccc1 | 12120
11. Cl.NC/C(=C\F)Cc1ccc(Cl)cc1 | 3
12. Cl.NC/C(=C\F)Cc1cccc(F)c1 | 27.6
13. CC(C)Oc1ccc(C/C(=C\F)CN)cc1 [Compound I-8-E, hydrochloride] | 3070
14. CS(=O)(=O)c1cccc(C/C=C(/F)CN)c1.Cl | 14286
15. CCOc1ccc(C/C(=C/F)CN)cc1.Cl | 1200
16. COc1ccc(CC/C(=C\Cl)CN)cc1.Cl | 22
17. Cl.NC/C(F)=C\Cc1cccc(F)c1 | 4545
18. COc1ccc(CC/C(=C/F)CN)cc1.Cl | 19
19. CC(C)c1ccc(C/C(=C/F)CN)cc1.Cl | 1250
20. CCOc1ccc(C/C(=C\F)CN)cc1.Cl | 189
21. CC(C)c1ccc(C/C(=C\F)CN)cc1.Cl | 2.54
22. COc1ccc(C/C(=C/F)CN)cc1.Cl | 88
